- System: Aspergillus niger
- method-description: Antimicrobial activity against Aspergillus niger CGMCC 3.316 after 48 hrs by modified microdilution method
- Type: functional
- protocol-conditions: CGMCC 3.316, 48 h
Would you kindly list MIC for each of these molecules?

// field: MIC; key: COC(=O)[C@]1(C)CCC[C@]2(C)c3ccc(C(C)C)cc3-c3[nH]c4c(Cl)cccc4c3[C@@H]12 ; value = > 100 µg/mL

// field: MIC; key: COC(=O)[C@]1(C)CCC[C@]2(C)c3ccc(C(C)C)cc3-c3[nH]c4c(C)cccc4c3[C@@H]12 ; value = > 100 µg/mL

// field: MIC; key: COC(=O)[C@]1(C)CCC[C@]2(C)c3ccc(C(C)C)cc3-c3[nH]c4ccc(Cl)cc4c3[C@@H]12 ; value = > 100 µg/mL

// field: MIC; key: CCOc1ccc2[nH]c3c(c2c1)[C@H]1[C@](C)(C(=O)OC)CCC[C@]1(C)c1ccc(C(C)C)cc1-3 ; value = > 100 µg/mL
